Form field: melting point (one value per entry).

Solved cases (5 shown):
- Structure smiles: "CC(=O)Nn1cnc2c(Br)csc2c1=O"
  Measured endpoint: "melting point"
  Result: "273 °C"
- Structure smiles: "O=c1[nH]cnc2cc(Br)sc12"
  Measured endpoint: "melting point"
  Result: "238 to 240 °C"
- Structure smiles: "Cc1sc2c(=O)[nH]cnc2c1Br"
  Measured endpoint: "melting point"
  Result: "320 to 322 °C"
- Structure smiles: "Cc1cc2ncn(C)c(=O)c2s1"
  Measured endpoint: "melting point"
  Result: "188 to 190 °C"
- Structure smiles: "Nn1cnc2c(Br)csc2c1=O"
  Measured endpoint: "melting point"
  Result: "181 to 183 °C"

Form field melting point, entry CC(=O)On1cnc2c(Br)csc2c1=O : 159 to 162 °C

Reported melting point ( O=c1[nH]cnc2sc(Br)cc12 ) = 301 to 304 °C
